Target Desc: SpBzz1-D1
Procedure Summary: SPOT peptide array binding signal intensity (averaged, normalized) (arbitrary units (background-subtracted, floor 0; scale differs between SH3 domains)); higher = stronger binding of the SH3 domain to the peptide
Outcome Measure: SPOT peptide array binding signal intensity
Could you respond with only the numeric value?

The examples below pair each entry with its known result.
KRNRLKILLPFLEQS 90
RSRRSSFAYPQQVAI 169
DAPASKPSVPPRNYF 95
ISRRRLPVIMHRLKM 124
IFLRISINFPLNYPN 1240

# query: SPOT peptide array binding signal intensity of entry `KRRAPPPVPKKPSSR`
1370

# query: SPOT peptide array binding signal intensity of entry `PLRRTVMSLPGNHDI`
243

# query: SPOT peptide array binding signal intensity of entry `GRSRLFPHSPLGRSS`
255

# query: SPOT peptide array binding signal intensity of entry `YHSRRHPLALGFKYV`
122

# query: SPOT peptide array binding signal intensity of entry `MFLISPPASPPPEFD`
33.5

# query: SPOT peptide array binding signal intensity of entry `FLIKFTPKFPQSIDH`
1440

# query: SPOT peptide array binding signal intensity of entry `TKHKAPPPPPPTAET`
240

# query: SPOT peptide array binding signal intensity of entry `LKPPIGRPPKFPKSP`
894
